These measurements were taken from patent US20190040130A1.

# SYSTEM: T1, human TREM2 expressed on cells (human, UniProt Q9NZC2 19-230)
# T1 construct: also called huT2 BW; cell expressed TREM2
# T1 sequence: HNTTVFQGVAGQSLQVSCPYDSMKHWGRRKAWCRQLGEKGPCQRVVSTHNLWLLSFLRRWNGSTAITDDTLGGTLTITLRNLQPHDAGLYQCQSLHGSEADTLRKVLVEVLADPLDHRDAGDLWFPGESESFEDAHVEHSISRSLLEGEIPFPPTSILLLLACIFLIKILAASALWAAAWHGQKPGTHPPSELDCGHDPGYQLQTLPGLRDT
# ASSAY_TEXT: FACS, BW cells
Can you tell me Cell binding (FOB) for the items I'm about to list?
Answers are plain numbers, in fold over background.

Some binders with recorded Cell binding (FOB):
AL2p-h21 (antibody, IgG1, V domains shown, IgG1; Fab in monovalent BLI) VH: QVQLVQSGAEVKKPGASVKVSCKASGYAFSSSWMNWVRQAPGQGLEWMGRIYPGDGDTNYAQKFQGRVTMTRDTSTSTVYMELSSLRSEDTAVYYCARLLRNQPGESYAMDYWGQGTLVTVSS VL: DVVMTQTPLSLSVTPGQPASISCRSSQSLVHSNGYTYLHWYLQKPGQSPQLLIYKVSNRFSGVPDRFSGSGSGTDFTLKISRVEAEDLGVYFCSQSTRVPYTFGQGTKLEIK; 76
AL2p-h50 (antibody, IgG1, V domains shown, IgG1; Fab in monovalent BLI) VH: QVQLVQSGAEVKKPGSSVKVSCKASGYAFSSSWMNWVRQAPGQGLEWMGRIYPGDGDTNYAQKFQGRVTITADESTSTAYMELSSLRSEDTAVYYCARLLRNQPGESYAMDYWGQGTLVTVSS VL: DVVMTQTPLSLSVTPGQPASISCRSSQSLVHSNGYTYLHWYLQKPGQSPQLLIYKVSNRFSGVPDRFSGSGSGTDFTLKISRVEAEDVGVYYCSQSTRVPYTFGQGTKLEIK; 78
AL2p-h42 (antibody, IgG1, V domains shown, IgG1; Fab in monovalent BLI) VH: QVQLVQSGAEVKKPGASVKVSCKASGYAFSSSWMNWVRQAPGQRLEWMGRIYPGDGDTNYAQKFQGRVTITRDTSASTAYMELSSLRSEDTAVYYCARLLRNQPGESYAMDYWGQGTLVTVSS VL: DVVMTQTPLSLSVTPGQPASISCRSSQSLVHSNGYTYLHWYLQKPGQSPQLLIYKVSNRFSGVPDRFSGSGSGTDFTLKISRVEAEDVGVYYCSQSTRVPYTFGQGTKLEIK; 79

Please look at the items below and tell me Cell binding (FOB) for each one, in order.
1. AL2p-h44 (antibody, IgG1, V domains shown, IgG1; Fab in monovalent BLI) VH: QVQLVQSGAEVKKPGASLKVSCKASGYAFSSSWMNWVRQAPGQRLEWIGRIYPGDGDTNYAQKFQGRATLTADTSASTAYMELSSLRSEDTAVYFCARLLRNQPGESYAMDYWGQGTLVTVSS VL: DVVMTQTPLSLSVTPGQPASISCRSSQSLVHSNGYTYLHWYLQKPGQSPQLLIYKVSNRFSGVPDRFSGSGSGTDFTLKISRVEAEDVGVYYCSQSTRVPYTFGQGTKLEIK
2. AL2p-h76 (antibody, IgG1, V domains shown, IgG1; Fab in monovalent BLI) VH: QVQLVQSGAEVKKPGASVKVSCKASGYAFSSSWMNWVRQAPGQRLEWIGRIYPGDGDTNYAQKFQGRATITADTSASTAYMELSSLRSEDTAVYFCARLLRNQPGESYAMDYWGQGTLVTVSS VL: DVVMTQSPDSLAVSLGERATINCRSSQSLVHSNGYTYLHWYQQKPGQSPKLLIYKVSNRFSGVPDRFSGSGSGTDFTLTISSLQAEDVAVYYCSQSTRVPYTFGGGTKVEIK

Response:
[80, 86]
